biological target: PfCSPC, C-terminal αTSR domain of P. falciparum NF54 circumsporozoite protein (E310-S384) (P. falciparum NF54, UniProt P19597)
Sequence (P19597 310-384): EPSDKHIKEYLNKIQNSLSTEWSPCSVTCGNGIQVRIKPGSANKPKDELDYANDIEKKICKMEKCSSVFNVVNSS
Endpoint: binding result

Examples from the recorded data:
// field: binding result; key: sdAb5 (VHH) VHH: QVQLQESGGGLVQAGGSLRLSCAASGRTFGSYVMGWFRQAPGKEREFVAAISRSGGTTYYADSVKGRFAISRDNAKNTVFLQMNSLKPEDTAVYYCAATTTISMLVVLTTTPKYDYWGQGTQVTVSS ; value = binds

// field: binding result; key: sdAb4 (VHH) VHH: QVQLQESGGGLVQVGGSLRLSCAASGRTFSSYTMAWFRQAPGKEREFVAAISRSGSNTYYADSVKGRFTISRDNAKNTVYLQMSSLYPEDTAVYTCAARDAILLLTTTHYDYWGQGTQVTVSS ; value = binds

// field: binding result; key: sdAb18 (VHH) VHH: QVQLQESGGGLVQPGGSLNLSCTAGVSLDYYAIGWFRQAPGKEREFVARISSSGGNTYYADSVRGRFTISRDNAKNTVYLQMNSLKPEDTAVYYCAADLLQFGRSSRAADYDYWGQGTQVTVSS ; value = binds

// field: binding result; key: sdAb10 (VHH) VHH: QVQLQESGGGLVQPGGSLRLSCAASGRTFSSYTMGWFRQAPGKERELVAAISRSGLNTDYADSVKGRFTISRDNAKNTVYLQMNTLKPEDTAVYYCAARSTIRLLTDPSYDYWGQGTQVTVSS ; value = binds

// switching to the query binder
// field: binding result; key: sdAb3 (VHH) VHH: QVQLQESGGGLVQAGGSLRLSCAASGRTFTEYSMGWFRQAPGKEREFVARISWSGGSTYYADSVKGRFTISRDNAENTVYLQMTSLKPEDTAVYYCAADQLQFGRNSRAADYDDWGQGTQVTVSS ; value = binds
